Values from paper PMC12136788

# ASSAYED SYSTEM: T1, UNK ZnF1-3 (human, UniProt Q9C0B0 31-174)
# T1 sequence: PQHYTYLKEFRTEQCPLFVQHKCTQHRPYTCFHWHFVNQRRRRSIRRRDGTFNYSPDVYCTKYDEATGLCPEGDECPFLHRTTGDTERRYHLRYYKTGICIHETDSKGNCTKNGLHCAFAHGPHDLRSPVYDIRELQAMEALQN
# PROTOCOL NOTES: nsRBNS (natural sequence RNA bind-n-seq); RBNS binding buffer (assumed for nsRBNS): 25 mM Tris pH 7.5, 150 mM KCl, 3 mM MgCl2, 0.01% Triton X-100, 500 ug/ml BSA, 20 U/ml SUPERase-In, 4 C; UNK is unkempt and MSI1 is Musashi-1; names of the RNAs are library labels; protein concentration not given here; high values mean tight binding
Over roughly 24,000 sequences, “enrichment r” has its median near 0.99; the highest 2% begin near 3.7. The list comes from a sample in which the highest values are over-represented; it also holds close analogues and randomly drawn sequences.
// values below are reported binding signal
Field: numeric (enrichment R). Do not append units.

Known binding signal results, listed for orientation:
binder="chr1:66486067:66486068:+_ENSMUSG00000015222_ENSMUST00000077355|mus_hu|FALSE|FALSE (ssRNA) RNA: GGGAGUUCUACAGUCCGACGAUCUUAUCCAGGUCCCAAAUGUUAAUAACUUAAUUGAAUCUUUCUUCCCAUUUAUACAAAAUAACACUUUAAAAAAACUUAUUUCUUACAUGCUCUUCCCUUCCUGCAAUCAGACUCCUUGGUCAACAGAGGAUUGAGCAUCA" value_type="binding signal" data_value=1.42
binder="60766941_60767061_3855_CDS_ENSG00000011028_ENST00000303375|human|control|control (ssRNA) RNA: GGGAGUUCUACAGUCCGACGAUCGAAGGCCUGGGUGUAGGGGUCGGGCACGUAGGCCAGGCUGGCAUUGCGGCUCUCACACAGCAGGAGGGCAUCGUGCCAGCGCAGCGGCUUCUGAAGCAGCCGGAAGGUGCCGUUGAGGUACAACAGAGGAUUGAGCAUCA" value_type="binding signal" data_value=0.939

# evaluate next
(Q) Would you mind telling me what binding signal value was observed for chr1:225611761:225611762:-_ENSG00000143815_ENST00000272163|hu_mus|hu_hu_hu_mus_True|38_98 (ssRNA) RNA: GGGAGUUCUACAGUCCGACGAUCCCAGGCCAUCGGCCUCUUACCACUUCACCCUCAACAAACUUCCUACUUGGCAUUUUCUAAAAUUAGUCUGGCCCAGGUUCCGGGGGAACUCCAGCCACUCCAGGACAGUCACCAGCAGCCCAACAGAGGAUUGAGCAUCA ?
(A) 1.5
